- Tested on: IGROV1 ovarian
- measurementDescription: NCI tumour cell line growth inhibition, 48 h
Parameter TGI: see the listing below.

Recorded TGI, per entry:
Cc1cc2c(cc1Cl)SC(=Nc1ccc(Cl)cc1)N(S(=O)(=O)c1ccccc1)S2(=O)=O
31.7 µM
Cc1cc(C2(O)C=C(C(C)(C)C)C(=O)C(C(C)(C)C)=C2)c(C)cc1C1(O)C=C(C(C)(C)C)C(=O)C(C(C)(C)C)=C1
> 100 µM
Nc1ccc(N=Nc2ccccc2)cc1
> 100 µM
NC(CS/C(Cl)=C/Cl)C(=O)O (stereo not given)
> 100 µM

The compound listed as Cc1[nH]c(=O)[nH]c(=O)c1/C=C/C(=O)O has a reported TGI of > 1000 µM

---

- System: SN12C renal
- measurementDescription: NCI tumour cell line growth inhibition, 48 h
measureName: TGI

Recorded TGI, per entry:
O=c1[nH]cnc2cccc(Cl)c12
> 100 µM
Cc1[nH]c(=O)[nH]c(=O)c1/C=C/C(=O)O
> 1000 µM
CC(=O)/C=C/c1ccc(C#Cc2ccccc2)s1
31.4 µM

For CCn1nc2c3c(ncn3C(C)(C)O2)c1=O on SN12C renal, measured TGI was > 100 µM

For O=C(O)c1ccc(S(=O)(=O)c2ccccc2[N+](=O)[O-])cc1 on SN12C renal, measured TGI was > 10 µM

For COC(=O)N/N=C(\C)C(CN1CCCCC1)C(C1=C(O)c2ccccc2OC1)c1ccccc1 (stereo not given) on SN12C renal, measured TGI was > 100 µM

---

- System: SNB-19 CNS
- measurementDescription: NCI tumour cell line growth inhibition, 48 h
measureName: TGI

O=C(NCCCCCCNCc1cccc2ccccc12)Nc1cccc2ccccc12
> 100 µM
NCCSc1nc2ccccc2c(=O)n1-c1ccccc1
57.1 µM
CC(C)(C=O)CC(C#N)/C(=N\NC(N)=O)C(=O)Nc1ccccc1C(N)=O (stereo not given)
> 100 µM
CC(=O)OC1CC2C(C)(C)OC(=O)CC(OC(C)=O)[C@]2(C)C2CCC3(C)C(=CCC3[C@H]3COC(=O)C3)[C@]12C (stereo not given in full)
> 100 µM
NCCN=C(Nc1ccccc1)Nc1ccccc1
> 100 µM
Cc1cc2c(cc1Cl)SC(=Nc1ccc(Cl)cc1)N(S(=O)(=O)c1ccccc1)S2(=O)=O
> 100 µM

The molecule listed as CCc1ccc2oc(-c3cc(O)c(-c4nc5cc(CC)ccc5o4)cc3O)nc2c1 has a reported TGI of > 100 µM

The molecule listed as O=C(OCC1OC2OC(c3ccccc3)(n3ccc4c([N+](=O)[O-])ccnc43)OC2C1OC(=O)c1ccccc1)c1ccccc1 (stereo not given) has a reported TGI of > 100 µM

The molecule listed as CC(C)S(=O)(=O)c1ccccc1Nc1nc(Nc2cccc(NC(=O)CN)c2)ncc1Cl has a reported TGI of 10.1 µM

The molecule listed as CC(=O)C1=C(C)NC2C=CC=CN12 (stereo not given) has a reported TGI of > 100 µM

---

Parameter TGI: see the listing below.
- Tested on: A498 renal
- measurementDescription: NCI tumour cell line growth inhibition, 48 h

Recorded TGI, per entry:
O=c1c2c([N+](=O)[O-])cccc2nc2[nH]c3ccccc3n12
> 75 µM
CC(C)(C=O)CC(C#N)/C(=N\NC(N)=O)C(=O)Nc1ccccc1C(N)=O (stereo not given)
> 100 µM
CN1NC(=Nc2ccccc2)Sc2c1cnn(-c1ccccc1)c2=O
> 100 µM

The compound listed as CCOC(=O)/C1=C(\C)N(c2ccc(C)cc2)C(=O)c2ccccc2C(=O)c2c(OC(C)=O)ccc(OC(C)=O)c21 has a reported TGI of > 100 µM

The compound listed as CC1=NN2C(=N)/C(=C/c3ccco3)C(=O)N=C2S1 has a reported TGI of > 100 µM

---

- Tested on: SK-MEL-5 melanoma
- measurementDescription: NCI tumour cell line growth inhibition, 48 h; in the data active = GI50 below about 0.43 µM; inactive = the rest
Classes to choose from: active, inactive

CC(=O)O[C@H](C[C@H](C(C)C)N(C)C(=O)[C@@H](NC(=O)[C@H]1CCCCN1C)C(C)C)c1nc(C(=O)N[C@@H](Cc2ccccc2)C[C@H](C)C(=O)O)c(CCOCc2ccccc2)s1
active
O=C(CSC(c1ccccc1)c1ccccc1)N/N=C/c1ccc(Cl)cc1Cl
inactive
Cn1cc(C2=C(c3cn(CCCCCN)c4ccccc34)C(=O)NC2=O)c2ccccc21
inactive

Input: Could you check what this test reported for Cc1cc(N/N=C/c2nc(-c3ccc(Br)cc3)oc2C)c2cc(Br)ccc2n1 ?
Output: inactive

Input: Could you check what this test reported for Nc1nc(SN=Nc2ccc(S(N)(=O)=O)cc2)c2[nH]cnc2n1 ?
Output: inactive

Input: Could you check what this test reported for CCn1c(CO)nn(-c2cc(O[C@@H](C)C(F)(F)F)c(C(=O)Nc3c(F)cccc3Cl)cc2F)c1=O ?
Output: active

Input: Could you check what this test reported for COc1cc(C2=C(c3cn(C)c4ccccc34)COC2=O)cc(OC)c1OC ?
Output: active

Input: Could you check what this test reported for C[C@]12CC[C@@H]3c4ccc(O)cc4CC[C@H]3[C@@H]1CC[C@@H]2NS(=O)(=O)c1cccc(F)c1 ?
Output: inactive

Input: Could you check what this test reported for CC(C)S(=O)(=O)c1ccccc1Nc1nc(Nc2cccc(NC(=O)CN)c2)ncc1Cl ?
Output: active

Input: Could you check what this test reported for N.N.N.N.[Cl-].[Co+3].[N-]=[N+]=[N-].[N-]=[N+]=[N-] ?
Output: inactive

---

Parameter TGI: see the listing below.
- Tested on: OVCAR-4 ovarian
- measurementDescription: NCI tumour cell line growth inhibition, 48 h

COc1cc(CNc2ccc(SC)cc2)cc(OC)c1OC
> 100 µM
O=C(CSc1nnc(Cc2ccccc2)o1)Nc1ccc([N+](=O)[O-])cc1
> 100 µM
Nc1nc(SN=Nc2ccc(S(N)(=O)=O)cc2)c2[nH]cnc2n1
> 51.1 µM
O=C(Nc1ccc(-n2cc(-c3ccncc3)c(-c3ccc(Cl)c(O)c3)n2)cc1)Nc1ccc(Cl)c(C(F)(F)F)c1
6.12 µM
NCCN=C(Nc1ccccc1)Nc1ccccc1
> 100 µM
COc1cc2cccc(N=Cc3cccc(OC)c3OC(C)C)c2cc1OC
52.4 µM

The compound listed as COc1ccc2ncn(-c3cc(O[C@H](C)c4ccccc4Cl)c(C(N)=O)s3)c2c1 has a reported TGI of > 25 µM

The compound listed as COc1cc2c3c(n(CCCN(C)C)c(=O)c2cc1OC)-c1ccccc1C3=O has a reported TGI of 53.5 µM

The compound listed as O=C(O)CC[N+]1=CCC(c2ccccc2)(c2ccccc2)O1 has a reported TGI of > 100 µM

The compound listed as Oc1cn(-c2ccc(Cl)cc2)nc1-c1n[nH]c(=S)n1C1CCCCC1 has a reported TGI of > 100 µM

---

- Test system: MCF7 breast
- measurementDescription: NCI tumour cell line growth inhibition, 48 h
Parameter TGI: see the listing below.

O=c1[nH]cnc2cccc(Cl)c12
> 100 µM
CC(=O)O[C@H]1CC[C@@]2(C)C(=CC[C@H]3[C@@H]4C[C@H](N5CCCC5)[C@H](OC(C)=O)[C@@]4(C)CC[C@@H]32)C1
> 100 µM
C=CCCC(=O)CC(O)(C(F)(F)F)C(F)(F)F
> 100 µM

The compound listed as COc1cc(C2=C(c3cn(C)c4ccccc34)COC2=O)cc(OC)c1OC has a reported TGI of > 19.8 µM

The compound listed as CCC1(C)N=C(c2cnccn2)NN1c1ccc(Cl)cc1 (stereo unspecified) has a reported TGI of > 100 µM

The compound listed as COc1cc(C2SCC(=O)N2c2ccc(-c3ccc(-n4c(-c5ccccc5)nc5ccccc5c4=O)cc3)cc2)cc(OC)c1OC (stereo unspecified) has a reported TGI of > 100 µM

---

- System: MALME-3M melanoma
- measurementDescription: NCI tumour cell line growth inhibition, 48 h
Parameter TGI: see the listing below.

Cc1cc[c-]cc1.Fc1c[c-]c(-c2ccccn2)c(F)c1.[Pt+2].c1ccc(P(C[PH+](c2ccccc2)c2ccccc2)c2ccccc2)cc1
5.06 µM
O=C1c2ccccc2-c2nc(-c3cccc([N+](=O)[O-])c3)nnc21
38.4 µM
Nc1cccc(Nc2nc3ccccc3nc2NS(=O)(=O)c2ccccc2)c1
72.7 µM
Nc1ccc(N=Nc2ccccc2)cc1
> 100 µM
Cc1ccc([C@H]2CC(=O)C[C@H](c3ccc(C)cc3)C23C(=O)c2ccccc2C3=O)cc1
> 100 µM
CN(C)C(=S)/N=c1\ss/c(=N\C(=S)N(C)C)n1-c1ccc(Cl)c(Cl)c1
> 100 µM
O=C1c2ccccc2C(=O)N1Cc1ccccc1-c1c2nc(c(-c3ccccc3CN3C(=O)c4ccccc4C3=O)c3ccc([nH]3)c(-c3ccccc3CN3C(=O)c4ccccc4C3=O)c3nc(c(-c4ccccc4CN4C(=O)c5ccccc5C4=O)c4ccc1[nH]4)C=C3)C=C2
> 100 µM
O=C1c2ccc3c4ccccc4n(Cc4ccccc4)c3c2C(=O)N1c1ccccc1
29.9 µM
COc1cc(C2SCC(=O)N2c2ccc(-c3ccc(-n4c(-c5ccccc5)nc5ccccc5c4=O)cc3)cc2)cc(OC)c1OC (stereo not drawn)
> 100 µM
Nc1nc(CCl)nc(Nc2ccccc2)n1
33.7 µM

The compound listed as NC(N)=NCCCCCNc1noc(Cc2c[nH]c3cc(Br)ccc23)n1 has a reported TGI of 35 µM

The compound listed as Nc1ccn(C2(CO)C=C(CO)C(O)C2O)c(=O)n1 (stereo not drawn) has a reported TGI of > 25.8 µM

The compound listed as COC(=O)/C(C)=C/[N+](=O)[O-] has a reported TGI of 31.4 µM

The compound listed as O=C(/C=C/c1cc(CN2CCOCC2)c(O)c2ncccc12)c1cc(CN2CCOCC2)c(O)c2ncccc12 has a reported TGI of > 100 µM

The compound listed as C[C@]12CC[C@@H]3c4ccc(O)cc4CC[C@H]3[C@@H]1CC[C@@H]2NS(=O)(=O)c1cccc(F)c1 has a reported TGI of 7.76 µM

The compound listed as CCC(C#N)NC(=O)NC(C#N)CC (stereo not drawn) has a reported TGI of > 100 µM

The compound listed as CC(=O)OC1CC2C(C)(C)OC(=O)CC(OC(C)=O)[C@]2(C)C2CCC3(C)C(=CCC3[C@H]3COC(=O)C3)[C@]12C (stereo partly drawn) has a reported TGI of > 100 µM

The compound listed as C=CCCC(=O)CC(O)(C(F)(F)F)C(F)(F)F has a reported TGI of > 100 µM
